A collection of compounds and their measured melting point

INSERT INTO measurements (compound, observed_measurement) VALUES
  ('O=C(CCl)NCC1(c2ccc(Cl)c(Cl)c2)CCC1', '104 to 105 °C');

Req: Could you share which melting point value was measured for COc1ccc(CC(C)NCC(O)c2cccc(Br)c2)cc1 (centres undefined) ?
Resp: 79 to 83 °C

Req: Then CCCCCn1c2ccccc2c2cc(C(=O)NCC(C)(C)C)ncc21 ?
Resp: 91 to 92 °C

Req: Then what about the compound Cc1oc(-c2ccccc2)nc1CCc1nc(COc2cccc(CC(=O)O)c2)cs1 ?
Resp: 153 to 154 °C

Req: Can you check CNC(=O)c1cn(C)c2cc(Cl)ccc2c1=O next?
Resp: 260 to 263 °C

Req: Would you kindly repeat that for O=c1[nH]c2ccccc2c(=O)cc1N(CCO)CCO ?
Resp: 204 to 205 °C

====

Listed here: items and their measured melting point.

INSERT INTO measurements (compound, observed_measurement) VALUES
  ('CC(C)CCCC(C)C1CCC2C3CC=C4CC(OC(=O)NCC(=O)N(CCCl)CCCl)CCC4(C)C3CCC12C (centres undefined)', '98 to 100 °C');

Req: Param item = CC[C@H]1COC(=O)N1c1nc(-c2ccc(Br)cc2)cs1 ; retrieve measured melting point.
Resp: 138 to 140 °C

Req: What about this compound? COc1ccc(C(CC2=NN(C)C(=O)C2)c2ccccc2)cc1OC1CCCC1 (centres undefined)
Resp: 105 to 108 °C

Req: Repeat with C=Cc1cc(Cl)cc2c1OC(C(F)(F)F)C(C(=O)O)=C2 (centres undefined)
Resp: 183 to 186 °C

Req: Check CCCc1c(-c2cc(=O)c3c(O)cc(O)cc3o2)ccc(OC)c1O too.
Resp: 200 °C

Req: Follow-up entry: COCC1CN(c2ccc(C3CCCCC3)c(N)c2)C(=O)O1 (racemic)
Resp: 130 to 132 °C

====

measurement.type: melting point

Worked set:
INSERT INTO assay_data (compound, measurement_type, observed_measurement) VALUES
  ('CCN(CC)C(=O)C(C)N1C(=O)C(NC(=O)OCc2ccccc2)N=C(c2ccccc2)c2ccccc21 (stereo not given)', 'melting point', '170 to 171 °C'),
  ('CCCCC1=C(C(=O)O)Nc2ccc(C(=O)O)cc2C1O (stereo not given)', 'melting point', '> 260 °C'),
  ('S=C(Cc1ccc(Cl)cc1)N1CCOCC1', 'melting point', '175 to 177 °C'),
  ('Cn1ncc(C(=O)N2CCC2)c1C(=O)Nc1cc2nc(-c3ccccc3)nn2cc1F', 'melting point', '> 250 °C'),
  ('CCCNS(=O)(=O)c1nc2ccc(OCC)cc2s1', 'melting point', '112 to 113 °C'),
  ('COC(=O)c1ccc(-c2nc(-c3ccccc3C(F)(F)F)cs2)cc1', 'melting point', '122 to 123 °C'),
  ('COCCCOc1ccc(CCCO)c(Oc2ncc(C(F)(F)F)cc2Cl)c1', 'melting point', '68.7 to 70.9 °C'),
  ('CCCCCCCCCCCCCCOc1cc(OCCCCCCc2cccc(O)c2O)cc(C(=O)O)c1', 'melting point', '92 to 94 °C');

Req: Endpoint output: melting point of CCCN(CCC)C1Cc2cc3c(cc2C1)C(=O)N(Cc1cccnc1)C3=O . Value?
Resp: 141 to 146 °C

Req: Next up: NC(=O)Cc1ccc(-c2nc3ccccc3o2)cc1
Resp: 251 to 255 °C

====

The entries below are paired with their reported melting point.

Take a look at these entries with their results.
INSERT INTO assay_data (compound, measurement_type, observed_measurement) VALUES
  ('COC(=O)C1=C(C)NC(C)=C(C(=O)OCC2CCCO2)C1c1cccc(C(F)(F)F)c1 (centres undefined)', 'melting point', '108 to 110 °C'),
  ('O=C(NCCc1c2n(c3ccc(O)nc13)CCCc1ccccc1-2)c1ccco1', 'melting point', '> 260 °C'),
  ('COC(=O)c1ccc(-c2ccc(-c3ccccc3)c(-c3ccc4c(c3)C(C)(C)CCC4(C)C)c2)c(O)c1', 'melting point', '183 to 185 °C'),
  ('Cc1cc(C(=O)Oc2ccccc2)c(O)c2ccccc12', 'melting point', '76 to 77 °C'),
  ('NCCCNc1cccc2[nH]ncc12', 'melting point', '154 to 163 °C');

Req: Can you share its melting point? I mean this compound: O=c1[nH]c2ccc(Cl)cc2c(=O)n1N1CCOCC1
Resp: 335 °C

Req: For Nc1nc2c(s1)CCN(CC1=Cc3ccccc3CC1)CC2 then?
Resp: 158 to 160 °C

Req: Continue with CCn1c(=O)oc2cc(N3C[C@H](C(N)=O)OC3=O)ccc21
Resp: 234 to 236 °C

Req: Same for CC(C)N1CCN(c2ccc([N+](=O)[O-])cc2)C(=O)C1
Resp: 87 to 90 °C

Req: Further, for CCCCCCCCc1c(C)nc2cc(C)nn2c1O ?
Resp: 199 °C

====

# melting point per entry

Worked cases, answers included:
INSERT INTO measurements (compound, observed_measurement) VALUES
  ('Nc1nc2c(sc(=O)n2CC2CCCO2)c(=O)[nH]1 (configuration not stated)', '257 to 261 °C'),
  ('CC(C)OC(=O)c1cnn(-c2ccccn2)c1S(N)(=O)=O', '123 to 124 °C'),
  ('Cn1cncc1C(O)(c1ccc(Cl)cc1)c1ccc2c(c1)c(-c1cccs1)cc(=O)n2C (configuration not stated)', '> 260 °C'),
  ('Cc1cc(C)c2c(c1O)CCC2=O', '152 to 154 °C'),
  ('O=C(NNC(=S)NNC(=O)c1ccccc1)c1ccccc1', '177 to 179 °C'),
  ('CC(C)(C)C(=O)C1CCCS1(=O)=O (configuration not stated)', '53 to 56 °C'),
  ('CC(C)NC(=O)c1c[nH]c2ncc(-c3nn(CCCN(C)C)c4cc(Cl)cc(F)c34)nc12', '249 to 255 °C'),
  ('OCC1CNc2ncccc2O1 (configuration not stated)', '123 to 124 °C'),
  ('C[C@H](NC(=O)c1cc(Cl)cnc1Oc1ccc(F)cc1)c1ccc(C(=O)O)cc1', '198 °C'),
  ('CCc1cccc(CC)c1-n1c(C(=O)O)cnc1SCc1ccccc1', '152 to 154 °C');

Req: Look up melting point: Brc1nnnn1Cc1ccccc1
Resp: 54 °C

Req: Another compound to check: CC(C)(C)OC(=O)NCc1nc(C(=O)O)cs1
Resp: 185 °C

Req: Then what about the compound CC(=O)N(NC(=O)c1ccccc1)[C@@H]1c2cc(C#N)ccc2OC(C)(C)[C@H]1O (relative stereo) ?
Resp: 212 to 213 °C

Req: Next: CC(C)=CCCC(C)CCOCC(=O)c1cc(C(C)C)c(O)c(C(C)C)c1 (configuration not stated)
Resp: 37 to 39 °C

Req: Now this one: CC1(C)c2cc(NS(C)(=O)=O)ccc2CC2C1CCCN2CC1CCCCC1 (configuration not stated)
Resp: 214 to 217 °C

Req: Do the same for CCc1nc2c(C)cc(C)nc2n1Cc1ccc(C(c2ccccc2)C(C)C(=O)NS(C)(=O)=O)cc1 (configuration not stated) please
Resp: 117 to 120 °C

Req: Next entry: Cc1ccc(C(=O)CC(=O)C2CC2)c(S(C)(=O)=O)c1
Resp: 129 to 131 °C

Req: Likewise for Oc1ccc2c(c1)Nc1ccccc1S2 ?
Resp: 207 to 208 °C

====

measurement.type: melting point

Record excerpt, results attached:
INSERT INTO results (compound, observed_measurement) VALUES
  ('CCCc1ccc(C(=O)Nc2ccc(C(C)=O)cc2)cc1', '174 to 176 °C'),
  ('O=C(c1ccc(F)cc1)C1CCN(CCCC2CCc3onc(-c4ccc(Cl)cc4)c3C2O)CC1 (centres undefined)', '152 to 155 °C');

Req: Look up melting point: Brc1ccc(O[C@H]2CCNC[C@H]2c2ccccc2)cc1 (relative stereo)
Resp: 113 to 115 °C

Req: Entry C[C@H](NC(=O)Cc1ccccc1F)C(=O)N[C@@H]1C(=O)Nc2ccccc2O[C@@H]1c1ccccc1 please
Resp: 115 to 135 °C

====

measurement.type: melting point

Worked set:
INSERT INTO results (molecule, measurement_type, observed_measurement) VALUES
  ('CCc1oc2ccccc2c1C(=O)c1cc(-c2ccccc2)c(O)c(-c2ccccc2)c1', 'melting point', '142 to 143 °C'),
  ('CCOc1ccc(NC(=O)OC(C)(C)C)c(C)c1', 'melting point', '55 to 56 °C'),
  ('COc1ccc([N+](=O)[O-])c(CBr)c1', 'melting point', '64 to 65 °C'),
  ('COc1ccccc1-c1cccc(-n2cnc3cc(C(O)C#N)ccc32)c1 (stereo not given)', 'melting point', '116 to 124 °C'),
  ('CCCOc1c(OC)cc(C(=O)O)cc1[N+](=O)[O-]', 'melting point', '121 to 123 °C'),
  ('CCc1cc(C(=O)O)c(Nc2ccc(F)cc2[N+](=O)[O-])s1', 'melting point', '198 to 200 °C');

Req: State the recorded melting point for this entry: CCS(=O)(=O)N[C@H](C(=O)NCCc1ccc(OC/C=C/c2ccccc2)c(OC)c1)C(C)C
Resp: 128 to 133 °C

// provenance: a melting point compilation (Tetko et al.; mined from patent text by program, amines drawn as free bases though some values may be those of a salt)
